Values compiled from paper PMC12416549.

ASSAY_TARGET: T1, TNFR1 (Homo sapiens, UniProt P19438)
T1 chain: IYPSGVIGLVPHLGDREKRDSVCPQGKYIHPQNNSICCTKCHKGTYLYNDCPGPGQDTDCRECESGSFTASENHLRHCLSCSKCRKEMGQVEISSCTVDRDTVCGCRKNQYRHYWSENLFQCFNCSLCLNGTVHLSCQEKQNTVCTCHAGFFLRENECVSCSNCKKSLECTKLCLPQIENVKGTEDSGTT
ASSAY_EXPLANATION: yeast display SC50
OBSERVATION_TYPE: apparent Kd (screen) (nM)
Express your answer in nM, writing the number without its unit.

{"BINDER": "Y101F (designed binder) SMEEEVEKAAKEYEKKKKEAIEKHLEKLKAKDKEAAERFLKELEEAAKEYAKDEAKTMSEEEAKRRAKKYKEKVLLSELSEEEQKEIKEAEEKLVRTILKFVEEAAK", "RESULT_VALUE": 0.49}
{"BINDER": "M2K (designed binder) SKEEEVEKAAKEYEKKKKEAIEKHLEKLKAKDKEAAERFLKELEEAAKEYAKDEAKTMSEEEAKRRAKKYKEKVLLSELSEEEQKEIKEAEEKLVRTILKYVEEAAK", "RESULT_VALUE": 0.49}
{"BINDER": "A105C (designed binder) SMEEEVEKAAKEYEKKKKEAIEKHLEKLKAKDKEAAERFLKELEEAAKEYAKDEAKTMSEEEAKRRAKKYKEKVLLSELSEEEQKEIKEAEEKLVRTILKYVEECAK", "RESULT_VALUE": 1.4}

// Input: Y50M (designed binder) SMEEEVEKAAKEYEKKKKEAIEKHLEKLKAKDKEAAERFLKELEEAAKEMAKDEAKTMSEEEAKRRAKKYKEKVLLSELSEEEQKEIKEAEEKLVRTILKYVEEAAK . Output its apparent Kd (screen) only.
0.446

// Input: T57Y (designed binder) SMEEEVEKAAKEYEKKKKEAIEKHLEKLKAKDKEAAERFLKELEEAAKEYAKDEAKYMSEEEAKRRAKKYKEKVLLSELSEEEQKEIKEAEEKLVRTILKYVEEAAK . Output its apparent Kd (screen) only.
0.0802

// Input: K11D (designed binder) SMEEEVEKAADEYEKKKKEAIEKHLEKLKAKDKEAAERFLKELEEAAKEYAKDEAKTMSEEEAKRRAKKYKEKVLLSELSEEEQKEIKEAEEKLVRTILKYVEEAAK . Output its apparent Kd (screen) only.
0.446
